Source listed as the supplement of paper PMC4862054.

System: MFM-223
Assay: normalised viability (% of control), CellTiter-Blue; higher = more viable cells (about 100 = DMSO control)
Settings: 10 nM; incubation time: 72 h
Each record here notes measured normalised viability.

SMILES_REPRESENTATION	TARGET_OR_TEST_SYSTEM	normalised viability
Cc1c(C(=O)Nc2ccc(N3C[C@@H](C)O[C@@H](C)C3)nc2)cccc1-c1ccc(OC(F)(F)F)cc1	MFM-223	93.5%
O=NN(CCCl)C(=O)NC1CCCCC1	MFM-223	84.7%
Nc1nc(Cl)nc2c1ncn2[C@@H]1O[C@H](CO)[C@@H](O)[C@@H]1F	MFM-223	92.6%
C[C@]12C=CC(=O)C=C1CC[C@@H]1[C@@H]2C(=O)C[C@@]2(C)[C@H]1CC[C@]2(O)C(=O)CO	MFM-223	91.7%

###

// values below are reported normalised response
Tested on: MDA-MB-231
Assay: normalised response (% of control), CellTiter-Glo; higher = more viable cells (100 = DMSO, 0 = benzethonium chloride kill control)
Conditions: incubation time: 72 h
PROPERTY_MEASURED: normalised response (%)

COMPOUND	TARGET_OR_TEST_SYSTEM	OBSERVED_MEASUREMENT
COc1cc2c(N3CCN(C(=O)Nc4ccc(OC(C)C)cc4)CC3)ncnc2cc1OCCCN1CCCCC1 [Tandutinib] (0.1 nM)	MDA-MB-231	104
Cn1cc(C[C@@H](N)C(=O)O)c2ccccc21 [1-methyl-D-tryptophan] (5 nM)	MDA-MB-231	96.8
O=C(c1cc(Cc2n[nH]c(=O)c3ccccc23)ccc1F)N1CCN(C(=O)C2CC2)CC1 [Olaparib] (1 nM)	MDA-MB-231	99.1
C[C@@H](C(=O)O)c1ccc(-c2ccccc2)c(F)c1 [Tarenflurbil] (1000 nM)	MDA-MB-231	95
N[C@@H](Cc1ccc(N(CCCl)CCCl)cc1)C(=O)O [Melphalan] (12.5 nM)	MDA-MB-231	102
CC(C)C[C@H](NC(=O)[C@H](CCc1ccccc1)NC(=O)CN1CCOCC1)C(=O)N[C@@H](Cc1ccccc1)C(=O)N[C@@H](CC(C)C)C(=O)[C@@]1(C)CO1 [Carfilzomib] (0.1 nM)	MDA-MB-231	107
Nc1nc(Cl)nc2c1ncn2[C@@H]1O[C@H](CO)[C@@H](O)[C@@H]1F [Clofarabine] (10 nM)	MDA-MB-231	93.5
CC(C)(C)Cn1c(N)nc2ccc(-c3[nH]c(C(C)(C)C)nc3-c3ccc(F)cc3)nc21 (10 nM)	MDA-MB-231	99.7
COc1cc2c(cc1-c1c(C)noc1C)ncc1[nH]c(=O)n([C@H](C)c3ccccn3)c12 [I-BET151] (1 nM)	MDA-MB-231	99.5
CC(C)n1nc(-c2ccc3oc(N)nc3c2)c2c(N)ncnc21 [INK128] (0.1 nM)	MDA-MB-231	92.1
Cn1cc(C[C@@H](N)C(=O)O)c2ccccc21 [1-methyl-D-tryptophan] (500 nM)	MDA-MB-231	96.6
CO[C@H](C(=O)[C@@H](O)[C@@H](C)O)[C@@H]1Cc2cc3cc(O[C@H]4C[C@@H](O[C@@H]5C[C@@H](O)[C@H](O)[C@@H](C)O5)[C@H](O)[C@@H](C)O4)c(C)c(O)c3c(O)c2C(=O)[C@H]1O[C@H]1C[C@@H](O[C@@H]2C[C@@H](O)[C@@H](O[C@@H]3C[C@](C)(O)[C@H](O)[C@@H](C)O3)[C@@H](C)O2)[C@H](O)[C@@H](C)O1 [Plicamycin] (10 nM)	MDA-MB-231	103
O=C(c1cc(Cc2n[nH]c(=O)c3ccccc23)ccc1F)N1CCN(C(=O)C2CC2)CC1 [Olaparib] (10 nM)	MDA-MB-231	90.2
Cn1nnc2c(C(N)=O)ncn2c1=O [Temozolomide] (1 nM)	MDA-MB-231	94.8
NC(=O)c1cccc2cn(-c3ccc([C@@H]4CCCNC4)cc3)nc12 [MK-4827] (1 nM)	MDA-MB-231	101
Cn1nnc2c(C(N)=O)ncn2c1=O [Temozolomide] (1000 nM)	MDA-MB-231	93.3
COc1cc(Nc2ncc(F)c(Nc3ccc4c(n3)N(COP(=O)(O)O)C(=O)C(C)(C)O4)n2)cc(OC)c1OC [Fostamatinib] (0.25 nM)	MDA-MB-231	101
C[C@@H](C(=O)O)c1ccc(-c2ccccc2)c(F)c1 [Tarenflurbil] (1 nM)	MDA-MB-231	98.1
CCc1cnn2c(NCc3ccc[n+]([O-])c3)cc(N3CCCC[C@H]3CCO)nc12 [Dinaciclib] (0.1 nM)	MDA-MB-231	98.5
Nc1nc(Cl)nc2c1ncn2[C@@H]1O[C@H](CO)[C@@H](O)[C@@H]1F [Clofarabine] (1000 nM)	MDA-MB-231	91
COc1cc2c(cc1-c1c(C)noc1C)ncc1[nH]c(=O)n([C@H](C)c3ccccn3)c12 [I-BET151] (10 nM)	MDA-MB-231	105
COc1cc2c(N3CCN(C(=O)Nc4ccc(OC(C)C)cc4)CC3)ncnc2cc1OCCCN1CCCCC1 [Tandutinib] (100 nM)	MDA-MB-231	106
O=C(c1cc(Cc2n[nH]c(=O)c3ccccc23)ccc1F)N1CCN(C(=O)C2CC2)CC1 [Olaparib] (1000 nM)	MDA-MB-231	88.7
N[C@@H](Cc1ccc(N(CCCl)CCCl)cc1)C(=O)O [Melphalan] (1250 nM)	MDA-MB-231	0.06
CC(C)(C)Cn1c(N)nc2ccc(-c3[nH]c(C(C)(C)C)nc3-c3ccc(F)cc3)nc21 (1000 nM)	MDA-MB-231	100
Cc1cc2c(F)c(Oc3ncnn4cc(OC[C@@H](C)O)c(C)c34)ccc2[nH]1 [Brivanib] (1 nM)	MDA-MB-231	104
COc1cc2c(Oc3ccc(NC(=O)C4(C(=O)Nc5ccc(F)cc5)CC4)cc3F)ccnc2cc1OCCCN1CCOCC1 [Foretinib] (0.1 nM)	MDA-MB-231	99.7
NC1(c2ccc(-c3nc4ccn5c(=O)[nH]nc5c4cc3-c3ccccc3)cc2)CCC1 [MK-2206] (100 nM)	MDA-MB-231	103
C[C@]12C=CC(=O)C=C1CC[C@@H]1[C@@H]2C(=O)C[C@@]2(C)[C@H]1CC[C@]2(O)C(=O)CO [Prednisone] (10 nM)	MDA-MB-231	98.7

###

Tested on: MDA-MB-453
Assay: normalised viability (% of control), CellTiter-Blue; higher = more viable cells (about 100 = DMSO control)
Settings: 10 nM; incubation time: 72 h
PROPERTY_MEASURED: normalised viability (%)

MOLECULE	TARGET_OR_TEST_SYSTEM	PROPERTY_MEASURED	OBSERVED_MEASUREMENT
Cc1c(C(=O)Nc2ccc(N3C[C@@H](C)O[C@@H](C)C3)nc2)cccc1-c1ccc(OC(F)(F)F)cc1	MDA-MB-453	normalised viability	110
O=C(c1cc(Cc2n[nH]c(=O)c3ccccc23)ccc1F)N1CCN(C(=O)C2CC2)CC1	MDA-MB-453	normalised viability	97.8
CC/C(=C(\c1ccccc1)c1ccc(OCCN(C)C)cc1)c1ccccc1	MDA-MB-453	normalised viability	257
Cc1c(N)nc([C@H](CC(N)=O)NC[C@H](N)C(N)=O)nc1C(=O)N[C@H](C(=O)N[C@H](C)[C@@H](O)[C@H](C)C(=O)N[C@H](C(=O)NCCc1nc(-c2nc(C(=O)NCCC[S+](C)C)cs2)cs1)[C@@H](C)O)[C@@H](OC1OC(CO)C(O)C(O)C1OC1OC(CO)C(O)C(OC(N)=O)C1O)c1cnc[nH]1 (stereo not given in full)	MDA-MB-453	normalised viability	102
CN1CCN(c2nc(C3=C(c4c[nH]c5ccccc45)C(=O)NC3=O)c3ccccc3n2)CC1	MDA-MB-453	normalised viability	93.4

###

Tested on: MDA-MB-468
Assay: normalised viability (% of control), CellTiter-Blue; higher = more viable cells (100 = DMSO, 0 = benzethonium chloride kill control)
Conditions: incubation time: 72 h
Recorded normalised viability values for a group of compounds are listed next.

COMPOUND	RESULT_UNITS	normalised viability
Nc1nc(Cl)nc2c1ncn2[C@@H]1O[C@H](CO)[C@@H](O)[C@@H]1F [Clofarabine] (1 nM)	%	111
CN1CCN(c2nc(C3=C(c4c[nH]c5ccccc45)C(=O)NC3=O)c3ccccc3n2)CC1 [Sotrastaurin] (1 nM)	%	97.7
O=C(c1cc(Cc2n[nH]c(=O)c3ccccc23)ccc1F)N1CCN(C(=O)C2CC2)CC1 [Olaparib] (1 nM)	%	95.3
NC1(c2ccc(-c3nc4ccn5c(=O)[nH]nc5c4cc3-c3ccccc3)cc2)CCC1 [MK-2206] (0.1 nM)	%	111

###

System: CAL-51
Experiment: normalised viability (% of control), CellTiter-Blue; higher = more viable cells (about 100 = DMSO control)
Details: incubation time: 72 h

MOLECULE	normalised viability
C[C@]12C=CC(=O)C=C1CC[C@@H]1[C@@H]2C(=O)C[C@@]2(C)[C@H]1CC[C@]2(O)C(=O)CO [Prednisone] (10000 nM)	101%
CC/C(=C(\c1ccccc1)c1ccc(OCCN(C)C)cc1)c1ccccc1 [Tamoxifen] (10000 nM)	90.2%
CN1CCN(c2nc(C3=C(c4c[nH]c5ccccc45)C(=O)NC3=O)c3ccccc3n2)CC1 [Sotrastaurin] (10000 nM)	108%
